System Under Test: Induced myeloid leukemia cell differentiation protein Mcl-1 (Homo sapiens)
Measurement Description: Inhibition of MCL-1 (unknown origin) by fluorescence polarization competition assay
Measure Name: Ki (nM)

A = Cc1cc(Oc2ccc(Cn3nc4ccc(Cl)cc4c3C(=O)NS(=O)(=O)c3ccc([N+](=O)[O-])c(NCc4ccco4)c3)cc2)cc(C)c1Cl
B = Cc1cc(Oc2ccc(Cn3nc4ccc(Cl)cc4c3C(=O)NS(=O)(=O)c3ccc(NCc4cccnc4)c([N+](=O)[O-])c3)cc2)cc(C)c1Cl
Please tell me which of the two, A or B , has the higher reported Ki value. Selection: enter the item's label.
A

A = Cc1cc(Oc2ccc(Cn3nc4ccc(Cl)cc4c3C(=O)NS(=O)(=O)c3ccc([N+](=O)[O-])c(NCc4ccncc4)c3)cc2)cc(C)c1Cl
B = Cc1cc(Oc2ccc(Cn3nc4ccc(Cl)cc4c3C(=O)NS(=O)(=O)c3ccc([N+](=O)[O-])c(N4CCOCC4)c3)cc2)cc(C)c1Cl
For A and B , which recorded Ki is lower? Selection: enter the item's label.
A
(A: 1360 nM, B: 2300 nM)

====

System Under Test: Induced myeloid leukemia cell differentiation protein Mcl-1 (Homo sapiens, UniProt Q07820)
Sequence (Q07820 whole entry): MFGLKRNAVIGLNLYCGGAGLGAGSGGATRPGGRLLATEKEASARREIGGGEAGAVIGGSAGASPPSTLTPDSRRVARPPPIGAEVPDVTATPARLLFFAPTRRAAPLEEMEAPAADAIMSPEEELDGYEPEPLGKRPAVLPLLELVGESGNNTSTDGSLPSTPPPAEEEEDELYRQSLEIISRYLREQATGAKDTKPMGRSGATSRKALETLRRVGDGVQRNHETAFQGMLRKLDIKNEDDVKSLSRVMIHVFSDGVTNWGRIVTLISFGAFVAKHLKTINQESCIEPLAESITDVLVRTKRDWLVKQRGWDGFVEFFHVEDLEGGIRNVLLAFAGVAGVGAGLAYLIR
Measurement Description: Inhibition of MCL-1 (unknown origin) by fluorescence polarization competition assay
Measure Name: Ki (nM)

| Structure Notation | Ki, nM |
| --- | --- |
| Cc1cc(Oc2ccc(Cn3nc4ccc(Cl)cc4c3C(=O)NS(=O)(=O)c3ccc(NCc4ccco4)c([N+](=O)[O-])c3)cc2)cc(C)c1Cl | 1300 |
| Cc1cc(Oc2ccc(Cn3nc4ccc(Cl)cc4c3C(=O)NS(=O)(=O)c3ccc(NCCc4cccnc4)c([N+](=O)[O-])c3)cc2)cc(C)c1Cl | 1460 |
| Cc1cc(Oc2ccc(Cn3nc4ccc(Cl)cc4c3C(=O)NS(=O)(=O)c3ccc(N4CCOCC4)c([N+](=O)[O-])c3)cc2)cc(C)c1Cl | 1320 |

====

System Under Test: UniProtKB P10415
pKi: −log10 of the molar value.
Measure Name: pKi

Sample answers from the record:
| Structure Notation | pKi |
| --- | --- |
| Cc1cc(Oc2ccc(Cn3nc4ccc(Cl)cc4c3C(=O)NS(=O)(=O)c3ccc(NCCc4cccnc4)c([N+](=O)[O-])c3)cc2)cc(C)c1Cl | 6.34 |
| Cc1cc(Oc2ccc(Cn3nc4ccc(Cl)cc4c3C(=O)NS(=O)(=O)c3ccc([N+](=O)[O-])c(NCc4ccn(C)n4)c3)cc2)cc(C)c1Cl | 6.15 |

I = Cc1cc(Oc2ccc(Cn3nc4ccc(Cl)cc4c3C(=O)NS(=O)(=O)c3ccc(N4CCOCC4)c([N+](=O)[O-])c3)cc2)cc(C)c1Cl
II = Cc1cc(Oc2ccc(Cn3nc4ccc(Cl)cc4c3C(=O)NS(=O)(=O)c3ccc([N+](=O)[O-])c(NCCc4ccco4)c3)cc2)cc(C)c1Cl
III = Cc1cc(Oc2ccc(Cn3nc4ccc(Cl)cc4c3C(=O)NS(=O)(=O)c3ccc(NCc4ccncc4)c([N+](=O)[O-])c3)cc2)cc(C)c1Cl
Which order do these items take when sorted by rising pKi? List them. Response format: the labels, sorted as the prompt asks.
III, II, I

====

System Under Test: Induced myeloid leukemia cell differentiation protein Mcl-1 (Homo sapiens, UniProt Q07820)
Measurement Description: Inhibition of MCL-1 (unknown origin) by fluorescence polarization competition assay
Measure Name: Ki (nM)

| Structure Notation | Unit Abbrev | Ki |
| --- | --- | --- |
| Cc1cc(Oc2ccc(Cn3nc(C(=O)O)c4cc(Cl)ccc43)cc2)cc(C)c1Cl | nM | 2280 |
| Cc1cc(Oc2ccc(Cn3nc4ccc(Cl)cc4c3C(=O)NS(=O)(=O)c3ccc(Cl)cc3)cc2)cc(C)c1Cl | nM | 1200 |
| Cc1cc(Oc2ccc(Cn3nc4ccc(Cl)cc4c3C(=O)NS(=O)(=O)c3ccc(NCc4ccn(C)n4)c([N+](=O)[O-])c3)cc2)cc(C)c1Cl | nM | 1570 |
| Cc1cc(Oc2ccc(Cn3nc4ccc(Cl)cc4c3C(=O)NS(=O)(=O)c3ccc(NCCN4CCOCC4)c([N+](=O)[O-])c3)cc2)cc(C)c1Cl | nM | 1610 |

====

pKi: −log10 of the molar value.
For Apoptosis regulator Bcl-2 (Homo sapiens, UniProt P10415), measured pKi is reported for the entries below.
Measure Name: pKi

| Structure Notation | pKi |
| --- | --- |
| Cc1cc(Oc2ccc(Cn3nc4ccc(Cl)cc4c3C(=O)NS(=O)(=O)c3ccc([N+](=O)[O-])c(NCCc4cccnc4)c3)cc2)cc(C)c1Cl | 6.34 |
| Cc1cc(Oc2ccc(Cn3nc4ccc(Cl)cc4c3C(=O)NS(=O)(=O)c3ccc([N+](=O)[O-])c(NCCc4ccncc4)c3)cc2)cc(C)c1Cl | 6.11 |
| Cc1cc(Oc2ccc(Cn3nc4ccc(Cl)cc4c3C(=O)NS(=O)(=O)c3ccc([N+](=O)[O-])c(NCc4ccncc4)c3)cc2)cc(C)c1Cl | 6.15 |
